System: MDA-MB-231
ASSAY_PROTOCOL: Cytotoxicity against human MDA-MB-231 cells after 24 hrs by MTT assay
Type: functional, cell-based
TEST_CONDITIONS: MDA-MB-231, 24 h
QUANTITY_MEASURED: IC50 (µM)
Give bare numbers, in µM.

Sample answers from the record:
> print(dat)
                                   compound  experimental.system  quantity.measured  result.number
1  O=C(Cc1ccc2c(c1)OCO2)NC(Cc1ccccc1)C(=O)N1CCN(C2=Nc3ccccc3Sc3ccccc32)CC1 (stereo not given)           MDA-MB-231               IC50             52
2  Cc1ccc(Br)cc1C(=O)NC(Cc1ccccc1)C(=O)N1CCN(C2=Nc3ccccc3Sc3ccccc32)CC1 (stereo not given)           MDA-MB-231               IC50             49
3  CCOC(=O)CCCC(=O)NC(Cc1ccccc1)C(=O)N1CCN(C2=Nc3ccccc3Sc3ccccc32)CC1 (stereo not given)           MDA-MB-231               IC50             48
4  O=C(CCc1cccc(Cl)c1)NC(Cc1ccccc1)C(=O)N1CCN(C2=Nc3ccccc3Sc3ccccc32)CC1 (stereo not given)           MDA-MB-231               IC50             59
5  Cc1ccc(C(=O)NC(Cc2ccccc2)C(=O)N2CCN(C3=Nc4ccccc4Sc4ccccc43)CC2)cn1 (stereo not given)           MDA-MB-231               IC50             54

For each of the compounds below, note its IC50.
1. N#Cc1ccc(C(=O)NC(Cc2ccccc2)C(=O)N2CCN(C3=Nc4ccccc4Sc4ccccc43)CC2)cc1 (stereo not given)
2. Cc1ccc(C)c(C(=O)NC(Cc2ccccc2)C(=O)N2CCN(C3=Nc4ccccc4Sc4ccccc43)CC2)c1 (stereo not given)

Output line:
61
34

###

Tested on: MDA-MB-231
ASSAY_PROTOCOL: Cytotoxicity against human MDA-MB-231 cells after 24 hrs by MTT assay
Type: functional, cell-based
TEST_CONDITIONS: MDA-MB-231, 24 h
QUANTITY_MEASURED: pIC50
Numbers only, as −log10 of the molar value.

Consider the reported pIC50 for these molecules:
> print(dat)
                                   molecule  result.number
1  O=C(NC(Cc1ccccc1)C(=O)N1CCN(C2=Nc3ccccc3Sc3ccccc32)CC1)c1ccoc1 (centres undefined)           4.43
2  CC(C)(C(=O)NC(Cc1ccccc1)C(=O)N1CCN(C2=Nc3ccccc3Sc3ccccc32)CC1)c1ccc(C(=O)C2CC2)cc1 (centres undefined)           4.47
3  Cc1ccc(C(=O)NC(Cc2ccccc2)C(=O)N2CCN(C3=Nc4ccccc4Sc4ccccc43)CC2)c(C)c1 (centres undefined)           4.43

Note: attention shifts to another entry.
Input line: I have this molecule here, CS(=O)(=O)c1ccc(CC(=O)NC(Cc2ccccc2)C(=O)N2CCN(C3=Nc4ccccc4Sc4ccccc43)CC2)cc1 (centres undefined) , and I need its recorded pIC50.
Output line: 4.25

###

EXPERIMENTAL_SYSTEM: NAD-dependent protein deacetylase sirtuin-1 (Homo sapiens)
ASSAY_PROTOCOL: Inhibition of human Sirt1 at 10 uM using fluorophore-labelled peptide as substrate measured after 15 mins by fluorescence assay relative to control
The label depends only on inhibition: T if it is at least 50%, F if it is smaller.

Worked set:
> print(dat)
                                   compound                       experimental.system  label.class
1  Cc1ccc(C)c(C(=O)NC(Cc2ccccc2)C(=O)N2CCN(C3=Nc4ccccc4Sc4ccccc43)CC2)c1 (stereo not given)  NAD-dependent protein deacetylase sirtuin-1 (Homo sapiens)            T
2  O=C(NC(Cc1ccccc1)C(=O)N1CCN(C2=Nc3ccccc3Sc3ccccc32)CC1)c1ccc(OC(F)F)cc1 (stereo not given)  NAD-dependent protein deacetylase sirtuin-1 (Homo sapiens)            T

Input line: Check if inhibition >= 50% (inclusive). Item: O=C(NC(Cc1ccccc1)C(=O)N1CCN(C2=Nc3ccccc3Sc3ccccc32)CC1)c1cnccn1 (stereo not given)
Output line: T

Input line: Same question, CC(C)(C(=O)NC(Cc1ccccc1)C(=O)N1CCN(C2=Nc3ccccc3Sc3ccccc32)CC1)c1ccc(C(=O)C2CC2)cc1 (stereo not given) this time
Output line: F

###

Tested on: MDA-MB-231
ASSAY_PROTOCOL: Cytotoxicity against human MDA-MB-231 cells after 24 hrs by MTT assay
Format: functional, cell-based
TEST_CONDITIONS: MDA-MB-231, 24 h
QUANTITY_MEASURED: pIC50
Give bare numbers, as −log10 of the molar value.

> print(dat)
                                   compound  quantity.measured  result.number
1  O=C(NC(Cc1ccccc1)C(=O)N1CCN(C2=Nc3ccccc3Sc3ccccc32)CC1)c1ccc(OC(F)F)cc1 (stereo not drawn)              pIC50           4.41
2  O=C(NC(Cc1ccccc1)C(=O)N1CCN(C2=Nc3ccccc3Sc3ccccc32)CC1)c1cnccn1 (stereo not drawn)              pIC50           4.42
3  CC(=O)CCCC(=O)NC(Cc1ccccc1)C(=O)N1CCN(C2=Nc3ccccc3Sc3ccccc32)CC1 (stereo not drawn)              pIC50           4.28
4  COC(=O)CCCC(=O)NC(Cc1ccccc1)C(=O)N1CCN(C2=Nc3ccccc3Sc3ccccc32)CC1 (stereo not drawn)              pIC50           4.19
5  CCc1ccc(C(=O)NC(Cc2ccccc2)C(=O)N2CCN(C3=Nc4ccccc4Sc4ccccc43)CC2)cc1 (stereo not drawn)              pIC50           4.36

Provide each entry's pIC50 from the list below.
1. Cc1ccc(C(=O)NC(Cc2ccccc2)C(=O)N2CCN(C3=Nc4ccccc4Sc4ccccc43)CC2)cc1I (stereo not drawn)
2. O=C(NC(Cc1ccccc1)C(=O)N1CCN(C2=Nc3ccccc3Sc3ccccc32)CC1)c1ccc(I)cc1 (stereo not drawn)
3. CCN(CC)CCNC(=O)c1c(C)[nH]c(/C=C2\C(=O)Nc3ccc(F)cc32)c1C [SUNITINIB]

Output line:
1. 4.23
2. 4.26
3. 4.49
